This collection of values is drawn from PubChem BioAssay (NCI).

experiment: NCI Yeast Anticancer Drug Screen. Data for the cln2 rad14 strain (AID 165); settings: S. cerevisiae cln2 rad14 strain, at 50.0 µM, hits give high values
The panel holds about 79,000 compounds, 15% with a hit somewhere; the sample as a whole holds those more often.
Use -10% as the dividing line for growth inhibition, with the line itself on the t side and lower values as f.

Worked set:
O=C(NCCO)c1cc2ccccc2cc1O | t
SC1c2cc(Cl)ccc2-c2c(Cl)cc(Cl)cc21 (stereo not drawn) | t
CCCCCC1(C)OCC(c2ccccc2)O1 (stereo not drawn) | f
O=C(Nc1nncs1)c1cccs1 | t
CCc1cc2c(c3c1CCCC3=O)CC1(C2)Cc2cc(CC)c3c(c2C1)C(=O)CCC3 | t

Does the reported growth inhibition for CCOC(=O)C1=C(Nc2ccc(Cl)cc2Cl)OCC1=O fall at or above the -10% mark?
f

Proceed to Clc1ccccc1OCCNC1CC1
f

Proceed to ClC(Cl)(Cl)C(Cl)(Cl)C(Cl)(Cl)Cl
f

Proceed to COc1cc(C(=O)Nc2ccc(N3CCCCC3)cc2)cc(OC)c1OC
f

Proceed to CCCC(=O)n1[nH]c(=O)n(C(C)(C)C)c1=O
t

Proceed to CCOC(=O)c1c(C)[nH]c(=S)c(C#N)c1-c1cccc2ccccc12
f

Proceed to Nc1ccc(Cc2ccc(N)c(Br)c2)cc1Br
f
